Values were extracted from patent US20240076272A1.

- System: eIF2α phosphorylation (ATF-4 5′UTR luciferase reporter)
- assayInfo: surrogate eIF2α phosphorylation dual-luciferase reporter (DLR) assay
- Format: cell-based
- setupConditions: 1.25 μM; F/R luciferase ratio normalized to DMSO wells (F/R=1); read-out: Fold stimulation of ATF-4 Surrogate eIF2α @ 1.25 μM
measuredParameter: fold induction at 1.25 µM
Answers are plain numbers.

Solved cases (7 shown):
N#Cc1ccc(F)c(NC(=O)N[C@H]2CC[C@H](Oc3ccc(C(F)(F)F)cc3)CC2)c1 [Compound 6-VI] = 1
O=C(Nc1ccc(F)c(F)c1)N[C@H]1C[C@H](Oc2ccc(C(F)(F)F)cc2)C1 [Compound 10-IV] = 2.2
O=C(Nc1ccc(F)c(F)c1)N[C@H]1CC[C@H](Oc2ccc(C(F)(F)F)cc2)C1 [Compound 10-V] = 0.9
N#Cc1cccc(NC(=O)N[C@H]2CC[C@H](Oc3ccc(C(F)(F)F)cc3)C2)c1 [Compound 3-V] = 0.8
O=C(Nc1cccc(C(F)(F)F)c1)N[C@H]1CC[C@H](Oc2ccc(C(F)(F)F)cc2)C1 [Compound 2-V] = 1.2
O=C(Nc1cccc(C(F)(F)F)c1)N[C@H]1C[C@H](Oc2ccc(C(F)(F)F)cc2)C1 [Compound 2-IV] = 2.4
O=C(Nc1cccc(F)c1F)N[C@H]1C[C@H](Oc2ccc(C(F)(F)F)cc2)C1 [Compound 11-IV] = 0.8

Then there is this compound:
Notebook: N#Cc1cc(NC(=O)N[C@H]2CC[C@H](Oc3ccc(C(F)(F)F)cc3)C2)cc(C(F)(F)F)c1 [Compound 1-V] , fold induction at 1.25 µM read as 3.1

====

- Test system: human melanoma CRL-2813 cells
- assayInfo: sulforhodamine B (SRB) cell proliferation assay
- Format: cell-based
- setupConditions: Homo sapiens, CRL2813, 120 h, 5 days, read-out: IC50 (concentration that inhibits growth of human melanoma CRL-2813 cells by 50%)
Mark each entry 1.0 if its IC50 sits below 3000 nM, and 0.0 for all others.

A selection of reference data follows.
O=C(Nc1cccc(C(F)(F)F)c1)N[C@H]1C[C@@H](Oc2ccc(C(F)(F)F)cc2)C1 = 1.0
N#Cc1cccc(NC(=O)N[C@H]2C[C@@H](Oc3ccc(C(F)(F)F)cc3)C2)c1 = 0.0
O=C(Nc1ccc(F)c(F)c1)N[C@H]1CC[C@H](Oc2ccc(C(F)(F)F)cc2)C1 = 0.0
O=C(Nc1cccc(C(F)(F)F)c1)N[C@H]1CC[C@H](Oc2ccc(C(F)(F)F)cc2)C1 = 1.0

Query block: Does O=C(Nc1cccc(F)c1F)N[C@H]1C[C@H](Oc2ccc(C(F)(F)F)cc2)C1 have IC50 strictly under 3000 nM?
Result block: 1.0

Query block: Regarding O=C(Nc1ccc(F)c(F)c1)N[C@H]1C[C@H](Oc2ccc(C(F)(F)F)cc2)C1 , kindly confirm whether its IC50 is beneath 3000 nM.
Result block: 0.0

Query block: I wonder whether N#Cc1cc(NC(=O)N[C@H]2CC[C@H](Oc3ccc(C(F)(F)F)cc3)C2)cc(C(F)(F)F)c1 has IC50 below 3000 nM. Can you tell?
Result block: 1.0

====

- Tested on: human melanoma CRL-2813 cells
- assayInfo: sulforhodamine B (SRB) cell proliferation assay
- Assay type: cell-based
- setupConditions: Homo sapiens, CRL2813, 120 h, 5 days, read-out: IC50 (concentration that inhibits growth of human melanoma CRL-2813 cells by 50%)
Can you tell me IC50 for the items I'm about to list?
Give bare numbers, in nM.

The following compounds have reported results that may help.
Cc1ccc(F)cc1NC(=O)N[C@H]1CC[C@H](Oc2ccc(C(F)(F)F)cc2)C1 [Compound 7-V] = 8000
O=C(Nc1ccc(F)c(F)c1)N[C@H]1CC[C@H](Oc2ccc(C(F)(F)F)cc2)CC1 [Compound 10-VI] = 1300

Would you kindly look at the next entry?
Short answer on human melanoma CRL-2813 cells for N#Cc1ccc(NC(=O)N[C@H]2CC[C@H](Oc3ccc(C(F)(F)F)cc3)CC2)cc1F [Compound 5-VI] , IC50: 460
